- ASSAYED_SYSTEM: recombinant human Dopamine Subtype D2s receptors (Homo sapiens)
- Construct: purchased Perkin Elmer
- Sequence (P14416 1-414 isoform P14416-2): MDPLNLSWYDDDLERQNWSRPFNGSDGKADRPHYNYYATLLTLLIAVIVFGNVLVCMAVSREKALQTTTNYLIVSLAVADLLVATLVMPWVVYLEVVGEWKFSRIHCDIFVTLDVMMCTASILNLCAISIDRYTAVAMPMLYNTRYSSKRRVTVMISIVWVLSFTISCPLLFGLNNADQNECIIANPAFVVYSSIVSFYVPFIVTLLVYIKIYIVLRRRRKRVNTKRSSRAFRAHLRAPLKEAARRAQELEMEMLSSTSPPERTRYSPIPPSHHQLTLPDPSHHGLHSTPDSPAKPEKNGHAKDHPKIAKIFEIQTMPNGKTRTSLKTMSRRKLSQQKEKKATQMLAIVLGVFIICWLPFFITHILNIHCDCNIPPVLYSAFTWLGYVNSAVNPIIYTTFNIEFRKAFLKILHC
- PROTOCOL_TEXT: Dopamine D2 selectivity binding assay ([3H]-spiperone)
- CONDITION_CONTEXT: inhibition of [3H]-spiperone (0.16 nM) binding; read-out: D2 bind pIC50 (converted)
- Experimental: Membranes containing recombinant human Dopamine Subtype D2s receptors were obtained from Perkin Elmer. […] Assays were performed in U-bottomed 96-well polypropylene plates. […] Five washes with 250 μL wash buffer (50 mM HEPES, 1 mM EDTA, 120 mM NaCl, pH 7.4) were performed at 4° C. to remove unbound radioactivity. […] The plates were sealed (TopSeal A) and filter-bound radioactivity was measured with a scintillation counter (TopCount, Packard BioScience) using a 3-minute counting protocol. […]
Counter-ions that a name gives are not always drawn.
Please use the following IC50 ranges when assigning a class: small value: < 300 nM; mid value: ≥ 300 nM and < 500 nM; large value: ≥ 500 nM

>>> print(df.to_string())
                                    molecule  assigned_label
 0  C[C@H](CNCCC(=O)N(CCNCCc1ccc(O)c2[nH]c(=O)sc12)C1CCCC1)c1ccccc1 [Example 31, bis-trifluoroacetic acid salt]     small value
 1  O=C(CCNCCc1ccc(Cl)cc1)N(CCNCCc1ccc(O)c2[nH]c(=O)sc12)C1CCCC1 [Example 28, bis-trifluoroacetic acid salt]       mid value
 2  Cc1cccc(CCNCCC(=O)N(CCNCCc2ccc(O)c3[nH]c(=O)sc23)C2CCOCC2)c1 [Example 25, bis-trifluoroacetic acid salt]     large value
 3  Cc1ccccc1CCNCCC(=O)N(CCNCCc1ccc(O)c2[nH]c(=O)sc12)C1CCOCC1 [Example 27, bis-trifluoroacetic acid salt]     large value
 4  CC(C)(CN(CCNCCc1ccc(O)c2[nH]c(=O)sc12)C(=O)CCNCCc1ccccc1)c1ccccc1 [Example 45, bis-trifluoroacetic acid salt]     small value
 5  CC(C)(C)CN(CCNCCc1ccc(O)c2[nH]c(=O)sc12)C(=O)CCNCCc1cccc(Cl)c1 [Example 7, bis-trifluoroacetic acid salt]       mid value
 6  CCCC[C@H](C)N(CCNCCc1ccc(O)c2[nH]c(=O)sc12)C(=O)CCNCCc1ccccc1 [Example 102, bis-trifluoroacetic acid salt]     small value
 7  CC(=O)OCC(C)(C)CN(CCNCCc1ccc(O)c2[nH]c(=O)sc12)C(=O)CCNCCc1ccc(Cl)cc1 [Example 39, acetate diacetic acid salt]     large value
 8  O=C(CCNCCc1c(F)cccc1F)N(CCNCCc1ccc(O)c2[nH]c(=O)sc12)C1CCCCCC1 [Example 84, bis-trifluoroacetic acid salt]     small value
 9  O=C(CCNCCc1ccccc1)N(CCNCCc1ccc(O)c2[nH]c(=O)sc12)CC12CC3CC(CC(C3)C1)C2 [Example 59, bis-trifluoroacetic acid salt]       mid value
10  O=C(CCNCCc1cccc(O)c1)N(CCNCCc1ccc(O)c2[nH]c(=O)sc12)C1CCCCCCC1 [Example 90, bis-trifluoroacetic acid salt]     small value
11  O=C(CCNCCc1ccccn1)N(CCNCCc1ccc(O)c2[nH]c(=O)sc12)C1CCCCC1 [Example 33, bis-trifluoroacetic acid salt]     large value
12  O=C(CCNCCc1cccc(Cl)c1)N(CCNCCc1ccc(O)c2[nH]c(=O)sc12)C1CCCCC1 [Example 12, bis-trifluoroacetic acid salt]     small value
13  CC(C)(C)CN(CCNCCc1ccc(O)c2[nH]c(=O)sc12)C(=O)CCNC(C)(C)Cc1ccccc1 [Example 38, bis-trifluoroacetic acid salt]     large value
14  O=C(CCNCCc1cc(F)cc(F)c1)N(CCNCCc1ccc(O)c2[nH]c(=O)sc12)C1CCCCCC1 [Example 58, bis-trifluoroacetic acid salt]     small value
15  O=C(CCNCCc1cccc(O)c1)N(CCNCCc1ccc(O)c2[nH]c(=O)sc12)C1CCCCCC1 [Example 37, bis-trifluoroacetic acid salt]       mid value
16  O=C(CCNCCc1ccc(Cl)s1)N(CCNCCc1ccc(O)c2[nH]c(=O)sc12)C1CCCCC1 [Example 72, bis-trifluoroacetic acid salt]     small value
17  Cc1cccc(CCNCCC(=O)N(CCNCCc2ccc(O)c3[nH]c(=O)sc23)CC(C)(C)C)c1 [Example 10, bis-trifluoroacetic acid salt]     large value
18  O=C(CCNCCc1cccc(Cl)c1)N(CCNCCc1ccc(O)c2[nH]c(=O)sc12)C1CCOCC1 [Example 22, bis-trifluoroacetic acid salt]     large value
19  O=C(CCNCCC(F)(F)F)N(CCNCCc1ccc(O)c2[nH]c(=O)sc12)C1CCCCC1 [Example 80, bis-trifluoroacetic acid salt]       mid value
20  CC(C)(C)CN(CCNCCc1ccc(O)c2[nH]c(=O)sc12)C(=O)CCNCCc1ccc(Cl)c(Cl)c1 [Example 9, bis-trifluoroacetic acid salt]     small value
21  O=C(CCNCCc1cccc(Cl)c1)N(CCNCCc1ccc(O)c2[nH]c(=O)sc12)C1CCCCCC1 [Example 50, bis-trifluoroacetic acid salt]     small value
